tested.on: Human Factor B (human, UniProt P00751 26-764)
Sequence (P00751 26-764 limits assumed): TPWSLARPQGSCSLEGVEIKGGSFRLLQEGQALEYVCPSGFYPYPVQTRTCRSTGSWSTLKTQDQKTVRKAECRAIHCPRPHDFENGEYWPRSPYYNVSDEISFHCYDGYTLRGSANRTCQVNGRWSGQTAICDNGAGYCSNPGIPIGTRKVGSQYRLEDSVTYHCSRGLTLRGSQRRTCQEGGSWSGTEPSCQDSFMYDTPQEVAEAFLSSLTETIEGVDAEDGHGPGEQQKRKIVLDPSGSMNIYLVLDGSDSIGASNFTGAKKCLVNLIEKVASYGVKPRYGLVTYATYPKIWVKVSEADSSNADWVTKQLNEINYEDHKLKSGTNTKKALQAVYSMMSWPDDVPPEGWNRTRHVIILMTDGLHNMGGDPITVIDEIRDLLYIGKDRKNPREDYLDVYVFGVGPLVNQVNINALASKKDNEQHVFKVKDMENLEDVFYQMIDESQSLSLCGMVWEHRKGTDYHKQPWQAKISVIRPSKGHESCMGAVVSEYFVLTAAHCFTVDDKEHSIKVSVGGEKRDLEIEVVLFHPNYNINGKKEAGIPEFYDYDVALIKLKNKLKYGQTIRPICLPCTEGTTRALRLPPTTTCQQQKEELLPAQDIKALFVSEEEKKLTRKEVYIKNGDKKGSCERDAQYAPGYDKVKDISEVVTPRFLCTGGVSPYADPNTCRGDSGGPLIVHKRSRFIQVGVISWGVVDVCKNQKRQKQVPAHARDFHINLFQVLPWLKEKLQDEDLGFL
assay.protocol: cell-based or functional assay
Label rule, in plain words: fB Cleavage EC50 of 2 µM and up is t, under 2 µM is f.

Worked cases, answers included:
binder	class.name
chymase C22S/K40L/F41H/L99N/F173Y/D175N/S218L/A226R (enzyme, also called MS No. 16) IIGGTESKPHSRPYMAYLEIVTSNGPSLHCGGFLIRRNFVLTAAHCAGRSITVTLGAHNITEEEDTWQKLEVIKQFRHPKYNTSTNHHDIMLLKLKEKASLTLAVGTLPFPSQFNFVPPGRMCRVAGWGRTGVLKPGSDTLQEVKLRLMDPQACSHYRNFDHNLQLCVGNPRKTKSAFKGDSGGPLLCAGVAQGIVSYGRLDAKPPRVFTRISHYRPWINQILQAN	f
chymase C22S/F41I/L99W/G151L/F173K/R217S/A226R (enzyme) IIGGTESKPHSRPYMAYLEIVTSNGPSKICGGFLIRRNFVLTAAHCAGRSITVTLGAHNITEEEDTWQKLEVIKQFRHPKYNTSTWHHDIMLLKLKEKASLTLAVGTLPFPSQFNFVPPGRMCRVAGWGRTGVLKPLSDTLQEVKLRLMDPQACSHKRDFDHNLQLCVGNPRKTKSAFKGDSGGPLLCAGVAQGIVSYGSSDAKPPRVFTRISHYRPWINQILQAN	f
chymase C22S/F41V/L99W/G151L/F173K/R217S/A226R (enzyme) IIGGTESKPHSRPYMAYLEIVTSNGPSKVCGGFLIRRNFVLTAAHCAGRSITVTLGAHNITEEEDTWQKLEVIKQFRHPKYNTSTWHHDIMLLKLKEKASLTLAVGTLPFPSQFNFVPPGRMCRVAGWGRTGVLKPLSDTLQEVKLRLMDPQACSHKRDFDHNLQLCVGNPRKTKSAFKGDSGGPLLCAGVAQGIVSYGSSDAKPPRVFTRISHYRPWINQILQAN	f
chymase C22S/K40L/F41R/L99N/F173Y/S218L/A226R (enzyme) IIGGTESKPHSRPYMAYLEIVTSNGPSLRCGGFLIRRNFVLTAAHCAGRSITVTLGAHNITEEEDTWQKLEVIKQFRHPKYNTSTNHHDIMLLKLKEKASLTLAVGTLPFPSQFNFVPPGRMCRVAGWGRTGVLKPGSDTLQEVKLRLMDPQACSHYRDFDHNLQLCVGNPRKTKSAFKGDSGGPLLCAGVAQGIVSYGRLDAKPPRVFTRISHYRPWINQILQAN	f

Field: next binder
State whether the measured fB Cleavage EC50 reaches 2 µM, counting equality as reaching it, for chymase F41V/L99H/G151V/F173Y/Y215K/R217G/A226R (enzyme) IIGGTECKPHSRPYMAYLEIVTSNGPSKVCGGFLIRRNFVLTAAHCAGRSITVTLGAHNITEEEDTWQKLEVIKQFRHPKYNTSTHHHDIMLLKLKEKASLTLAVGTLPFPSQFNFVPPGRMCRVAGWGRTGVLKPVSDTLQEVKLRLMDPQACSHYRDFDHNLQLCVGNPRKTKSAFKGDSGGPLLCAGVAQGIVSKGGSDAKPPRVFTRISHYRPWINQILQAN
t

Data provenance: patent US20240117334A1
